Target: Guanine nucleotide-binding protein G(o) subunit alpha (Homo sapiens)
Test: retest of RGS8-Galphao interaction hits – biochemical, multiplexed bead flow cytometry, single concentration, confirmation (AID 1836);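 note: Galphao activated as GDP AlF4 complex before binding bead RGS8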
Details: bead-based flow cytometry RGS8-Galphao binding, fluorescence; at 10 µM; actives lie on both sides
The other results are listed elsewhere or left out.
Measurement Kind: binding response (% of control) (%)
Write the number in % without appending the unit.

Below, 4 compounds whose answers are already recorded.
CCCCOC(=O)Cn1c(=N)n(CCN(CC)CC)c2ccccc21 ... 101
O=C1CCC(=O)N(O)CCCCCNC(=O)CCC(=O)N(O)CCCCCNC(=O)CCC(=O)N(O)CCCCCN1 ... 53.5
Cc1ccccc1NC(=S)N(CCCN1CCOCC1)Cc1cccs1 ... 104
Cc1ccc(N2C(=O)C3C(c4ccccc4)(C2=O)C3(c2ccccc2)c2ccccc2)cc1 (stereo not given) ... 91.8

Enquiry: Value lookup for binding response (% of control); key = "CCn1c(CSCc2c(Cl)cccc2Cl)n[nH]c1=S"
Return: 89

Enquiry: Value lookup for binding response (% of control); key = O=C(NCc1ccc(F)cc1)C1CCC(CNc2c(N3CCOCC3)c(=O)c2=O)CC1 (stereo not given)
Return: 101

Enquiry: Value lookup for binding response (% of control); key = "O=C(Nc1ccccc1)OCc1cc(-c2ccc(Cl)cc2)on1"
Return: 107

Enquiry: Value lookup for binding response (% of control); key = Cn1c(=O)c2c(n(Cc3ccccc3)c1=O)NC(=O)C2CC(=O)N1CCc2ccccc2C1 (stereo not given)
Return: 100

Enquiry: Value lookup for binding response (% of control); key = "O=C(CN1CCOCC1)Nc1ccccc1"
Return: 97.1

Enquiry: Value lookup for binding response (% of control); key = CCCC1C(c2ccccc2)C(C#N)(C#N)C2(C#N)CC1(N)NC2=O (stereo not given)
Return: 103

Enquiry: Value lookup for binding response (% of control); key = "COc1ccc(C(=O)COC(=O)c2ccc3ccccc3n2)cc1"
Return: 95.5

Enquiry: Value lookup for binding response (% of control); key = "C/C(=C/C(=O)N1CCN(C)CC1)C(=O)O"
Return: 104

Enquiry: Value lookup for binding response (% of control); key = "CCCOc1ccc(Cc2c(Cl)nc(SC)nc2NC)cc1"
Return: 102

Enquiry: Value lookup for binding response (% of control); key = "CC(=O)c1ccc(NC(=S)NC(=O)CC(C)C)cc1"
Return: 99.1

Enquiry: Value lookup for binding response (% of control); key = "Cc1ccc(-n2c(SCC(=O)Nc3ncc(Cl)cc3Cl)nc3ccccc32)cc1"
Return: 103
